- Assay Procedure: amyloid nucleation score (Sup35N fusion, yeast selection) (log enrichment); library NNK2; higher = more nucleation; inactive = no reads after selection;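 further: zero at mode of non-aggregating sequences after 7 days selection at 30°C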
Measure: amyloid nucleation score

I am curious: what amyloid nucleation score value has been reported for "TWHSIWREYSGTFTHTYWTD" ?
0.555

And the next one, "VCYGVSFPIGWGYQYHNRNV" ?
inactive

Also need "NGRLWNGFMYCGWTNWFFCV" , thanks.
1.11

Do the same for "GKPNGGYSTAK" please
0.777

Now consider "TQPPNCQVYKRDDTCYWCGS" .
-0.509

Next:
Can you look up the measured amyloid nucleation score of "PGSKPPWVSYGNPSTMAIGM" for me?
-0.472

Now try "MGSLSHYRAQDRLREQLWLW" .
0.458

Please give the result for "SCCMGICGKDLCDGIELKFP" too.
-0.936

Field entry: "GFMKPSRYLNMVKFNCRLRS"
inactive

What about this substance? "WVVRGWLGV"
0.23

# iterate: "MFYFRFLKGTSQMIKAAMRS"
-0.059

What do you have for "IRLVHSNVEIWGSDLVFHRG" ?
6.2

* * *

- Assay Procedure: amyloid nucleation score (Sup35N fusion, yeast selection) (log enrichment); library NNK1; higher = more nucleation; inactive = no reads after selection
// reported amyloid nucleation score for each item listed
No unit in the answer, please; the number alone is enough.

What value of amyloid nucleation score has been recorded for this entry: "HWNHYWQ"
-0.07

Now this one: "SMRLGKTIAVLVINEHGMLQ"
2.17

Now this one: "LAMLSNGSFNGLFLLWSRCH"
0.525

Further cases:
Need amyloid nucleation score of "VLGLLITGDRLS" , thanks.
0.1

Then this substance: "RRCSEM"
0.853

Next entry: "IRQQKGFGCNAFWMVLG"
0.83

Another substance to look at: "CVGDFVME"
-0.318

Now give it for "GASCTLISCLLLLHSAWSLS" too.
0.237

Do the same for "SRWPAVVRTLFRSCKV" please
0.48

And the next one, "NTGWDRGHGCSLMFHRVLEW" ?
2.67

Try "NWAKGNCYVAFRLKWRYNCG" next.
0.745

Now consider "GNVAWYTSIGCGGMILWADF" and answer again.
-0.124

And the next one, "CVLRMNVFDSKGFWVGYRRD" ?
0.602

Query "RVHSIDENVWMVQGQNSRAG" next
3.73

What about this substance? "NSTSCCVMGVSVRFMSFF"
7.5

# iterate: "MYFFGQYVCYYWEH"
7.38

* * *

We begin with a simple list: items and their reported amyloid nucleation score.
- Assay Procedure: amyloid nucleation score (Sup35N fusion, yeast selection) (log enrichment); library NNK2; higher = more nucleation; inactive = no reads after selection

Given the substance "RNIVDISSNVRCWLGRPAIS" , what is its reported amyloid nucleation score?
3.27

Entry to check: "SKLRYNFR"
-0.573

Another: "GMVAICFYHM"
6.05

Please answer likewise for "KGRFHNLTEPGRVQEKE"
-1.32

Now the same for "TMYYRNRGLVSEPKNYNGNE"
-0.246

Record: "CYISFWARRFDEYLSLLSFA"
-0.343

Repeat for the following substance: "FNFIIAQE"
-1.1

Another substance: "PGLRGGA"
-0.398

Entry to check: "WCGARLKSDLCILK"
-0.494

Please answer likewise for "DMYWCIYDRFMSLSWKT"
-0.597

Next:
Fill in: amyloid nucleation score of "AILLGLWCCTWFREALACLA" is ___
1.04

Now give it for "RFHELCV" too.
0.998
